molecular target: Protease (Human immunodeficiency virus 1, UniProt Q9YQ12); assay: Inhibition of HIV1 LAI protease by fluorescence assay
Sequence (Q9YQ12 whole entry): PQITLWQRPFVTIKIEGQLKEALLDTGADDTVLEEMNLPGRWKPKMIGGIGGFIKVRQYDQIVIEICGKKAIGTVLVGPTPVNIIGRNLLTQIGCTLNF
Consider the following compounds; for each one, report its Ki.
Please answer using the number first and the unit second.

So what Ki did COc1ccc(S(=O)(=O)N(CC(C)C)C[C@@H](O)[C@H](Cc2ccccc2)NC(=O)O[C@@H]2COC[C@@H]3O[C@H]4OCC[C@H]4[C@@H]32)cc1 get with Protease (Human immunodeficiency virus 1, UniProt Q9YQ12)?
3.1 nM

So what Ki did COc1ccc(S(=O)(=O)N(CC(C)C)C[C@@H](O)[C@H](Cc2ccccc2)NC(=O)O[C@H]2CCC[C@H]3O[C@@H]4OCC[C@@H]4[C@@H]23)cc1 get with Protease (Human immunodeficiency virus 1, UniProt Q9YQ12)?
0.01 nM

So what Ki did COc1ccc(S(=O)(=O)N(CC(C)C)C[C@@H](O)[C@H](Cc2ccccc2)NC(=O)O[C@@H]2CCC[C@@H]3O[C@H]4OCC[C@H]4[C@@H]32)cc1 get with Protease (Human immunodeficiency virus 1, UniProt Q9YQ12)?
0.45 nM
